// reported Percent Effect for each item listed
Target: Aspartate--tRNA(Asp/Asn) ligase (Mycobacterium tuberculosis (strain ATCC 25618 / H37Rv)) (UniProt P9WFW3); note: in the data most compounds retested in dose-response had high values
Sequence (whole entry): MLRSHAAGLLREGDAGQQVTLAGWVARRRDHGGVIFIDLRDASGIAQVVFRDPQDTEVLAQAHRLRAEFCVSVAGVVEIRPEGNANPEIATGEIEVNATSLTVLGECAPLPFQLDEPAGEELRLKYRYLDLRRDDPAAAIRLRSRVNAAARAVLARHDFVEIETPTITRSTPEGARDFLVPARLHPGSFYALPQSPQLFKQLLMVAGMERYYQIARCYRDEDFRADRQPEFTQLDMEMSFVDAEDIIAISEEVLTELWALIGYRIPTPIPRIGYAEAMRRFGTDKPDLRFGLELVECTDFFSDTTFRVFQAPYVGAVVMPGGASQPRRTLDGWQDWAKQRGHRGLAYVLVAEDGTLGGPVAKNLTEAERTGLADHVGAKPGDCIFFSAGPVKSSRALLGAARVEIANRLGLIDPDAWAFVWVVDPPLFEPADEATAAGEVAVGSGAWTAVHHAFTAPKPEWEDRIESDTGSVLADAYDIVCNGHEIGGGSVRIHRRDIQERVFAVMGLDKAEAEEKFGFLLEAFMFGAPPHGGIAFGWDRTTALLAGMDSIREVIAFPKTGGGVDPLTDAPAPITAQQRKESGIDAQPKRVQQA
Assay: Assay for Asp RNA synthetase-1 from Mycobacterium tuberculosis
Format: functional
Design: scale not given: direction of the effect not stated beside the values
Settings: 30 µM
assayEndpoint: Percent Effect (%)

compound="Cc1nc(N(C)C)nc2c1COCC21CCN(C(=O)NC(C)C)C1 (stereo unspecified)" assayendpoint="Percent Effect" observedvalue=2.63
compound=CNC(=O)c1nc2c(s1)CCN(C(=O)c1cccnc1)CC2 assayendpoint="Percent Effect" observedvalue=2.01
compound=O=C(Cn1nc2c(cc1=O)CCCC2)N[C@@H](C(=O)O)c1ccccc1 assayendpoint="Percent Effect" observedvalue=-1.42
compound="N#Cc1cn(C2CC2)c(=O)n(CC(O)c2ccccc2F)c1=O (stereo unspecified)" assayendpoint="Percent Effect" observedvalue=0.3
compound="CC(O)CN1CCN(C(=O)c2ccc(Cn3cccn3)cc2)CC1 (stereo unspecified)" assayendpoint="Percent Effect" observedvalue=5.51
compound="CC(Cn1cccn1)NC(=O)N(C)Cc1ccc(Cl)s1 (stereo unspecified)" assayendpoint="Percent Effect" observedvalue=-7.31
compound="Cc1nc(C)n(CC2CCCN2Cc2nc3ccccc3nc2C)n1 (stereo unspecified)" assayendpoint="Percent Effect" observedvalue=-11.8
compound=Cc1oc(C)c(C(=O)NCc2cccnc2N(C)C)c1C assayendpoint="Percent Effect" observedvalue=-2.01
compound=Cn1cnc2c(N3CCCC3)nc(C3CCNCC3)cc21 assayendpoint="Percent Effect" observedvalue=3.17
compound="N#Cc1cccc(S(=O)(=O)NC2CCN(Cc3ccccc3)C2=O)c1 (stereo unspecified)" assayendpoint="Percent Effect" observedvalue=-1.89
compound=CN1CCCC[C@@H]2[C@H]1[C@@H](c1ccccc1)CCN2C(=O)c1ccccc1 assayendpoint="Percent Effect" observedvalue=-4.21

----------
// reported Percent Effect for each item listed
Biological target: Tyrosyl-tRNA synthetase, putative (Trypanosoma cruzi (strain CL Brener)) (UniProt Q4DSP6)
Sequence (Q4DSP6 as listed by the source): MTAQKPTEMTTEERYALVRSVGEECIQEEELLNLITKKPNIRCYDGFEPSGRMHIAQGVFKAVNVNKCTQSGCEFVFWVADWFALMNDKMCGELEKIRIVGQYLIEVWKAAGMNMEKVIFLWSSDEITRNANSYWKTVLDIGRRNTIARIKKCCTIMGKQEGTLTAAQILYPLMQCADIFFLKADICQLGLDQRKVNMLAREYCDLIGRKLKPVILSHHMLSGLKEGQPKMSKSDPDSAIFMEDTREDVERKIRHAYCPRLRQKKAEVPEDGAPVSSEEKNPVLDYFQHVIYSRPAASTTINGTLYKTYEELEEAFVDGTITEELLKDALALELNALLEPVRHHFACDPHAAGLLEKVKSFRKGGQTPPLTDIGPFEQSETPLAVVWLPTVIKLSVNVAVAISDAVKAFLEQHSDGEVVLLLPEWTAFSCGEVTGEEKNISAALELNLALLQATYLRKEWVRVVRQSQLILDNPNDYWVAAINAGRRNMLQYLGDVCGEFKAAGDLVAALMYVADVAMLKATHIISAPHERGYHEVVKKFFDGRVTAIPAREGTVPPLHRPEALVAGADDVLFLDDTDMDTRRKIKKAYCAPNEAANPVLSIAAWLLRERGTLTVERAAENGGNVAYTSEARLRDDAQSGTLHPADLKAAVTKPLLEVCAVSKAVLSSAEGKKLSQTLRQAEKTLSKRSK
Experiment: Trypanosoma cruzi tyrosyl tRNA synthetase (TcYRS) SOP
Assay type: functional
Set-up: scale not given: direction of the effect not stated beside the values
Conditions: 30 µM
assayEndpoint: Percent Effect (%)

molecule=Cc1cccc(CN2C(=O)C[C@H]3[C@@H]2CCN3Cc2ccccn2)n1 observedvalue=20
molecule=CC(C)=CCN1C[C@H]2CC[C@@H]1CN(C(=O)c1c[nH]c(=O)c(Cl)c1)C2 observedvalue=13.6
molecule="COc1ccc(C(=O)C2CCCN(Cc3ccc(C)o3)C2)c(OC)c1 (stereo not given)" observedvalue=7.32
molecule=Cc1noc(C)c1CN1CC[C@H]2OCC[C@@]2(C(=O)N2CCCO2)C1 observedvalue=10.3
molecule=NC(=O)CN1CCCN(C(=O)Cc2ccc3c(c2)OCO3)CC1 observedvalue=10.3
